Entries and their GI50 values follow.
System: SF-268
Experiment: NCI tumour cell line growth inhibition, 48 h
Active and inactive are the calls of the source. Cut-off read from the data, not from the text of the source: active = GI50 up to about 1.1 µM and inactive = higher.
Readout Kind: GI50

[[record]]
molecule = "Nc1ccc(S(=O)(=O)Nc2cnc3c(Cl)cccc3n2)cc1"
target_entity = "SF-268"
result = "197 µM (inactive)"

[[record]]
molecule = "O=[N+]([O-])c1nc(-c2ccccn2)[nH]c1[N+](=O)[O-]"
target_entity = "SF-268"
result = "43.6 µM (inactive)"

[[record]]
molecule = "COCc1nc2c(OC)c(-c3nc4ccc(N5CCN(C)CC5)nc4[nH]3)cc(OC)c2[nH]1"
target_entity = "SF-268"
result = "77.4 µM (inactive)"

[[record]]
molecule = "O=C(O)CSc1nnc(COc2ccccc2)n1-c1ccccc1"
target_entity = "SF-268"
result = "> 100 µM (inactive)"

[[record]]
molecule = "Cc1occc1C(=S)Nc1ccc(Cl)c(C(=O)OC(C)C2CC2)c1 (centres undefined)"
target_entity = "SF-268"
result = "22.6 µM (inactive)"

[[record]]
molecule = "CN1CC[C@]2(c3cccc(O)c3)CC(=O)/C(=C/c3ccccc3)[C@@H]1C2.[O-][Cl+3]([O-])([O-])O"
target_entity = "SF-268"
result = "3.17 µM (inactive)"

[[record]]
molecule = "Cc1cc(OCc2nnc3n2N=C(c2cc(F)c(Cl)cc2Cl)/C(=C/c2ccc(-c4ccc(Cl)cc4)o2)S3)ccc1Cl"
target_entity = "SF-268"
result = "> 50 µM (inactive)"

[[record]]
molecule = "CC1CC[C@]2(C(=O)O)CCC3(COC(=O)/C=C\\c4ccc(O)cc4)C(=CCC4[C@@]5(C)CC[C@H](O)C(C)(C)C5CC[C@]43C)[C@@H]2[C@H]1C (some centres undefined)"
target_entity = "SF-268"
result = "14.7 µM (inactive)"

[[record]]
molecule = "CC1=NN(c2nc(N)nc(/C(C#N)=C/c3ccncc3)n2)C(C)(C)C1"
target_entity = "SF-268"
result = "> 100 µM (inactive)"

[[record]]
molecule = "COC(=O)c1cc(NC(=O)c2cc(NC(=O)c3cc([N+](=O)[O-])cn3C)cn2C)cn1C"
target_entity = "SF-268"
result = "> 100 µM (inactive)"

[[record]]
molecule = "CCN1CC(C)Cn2c(=O)[nH]c3cc(Br)cc1c32 (centres undefined)"
target_entity = "SF-268"
result = "10.9 µM (inactive)"

[[record]]
molecule = "COc1ccc(-c2cc(-c3ccncc3)nc(N)c2-c2ccc(F)cc2)cc1"
target_entity = "SF-268"
result = "44 µM (inactive)"

[[record]]
molecule = "CNC(=S)N/N=C(C)\\C(=N/NC(=S)NC)c1ccccc1"
target_entity = "SF-268"
result = "74.8 µM (inactive)"

[[record]]
molecule = "COc1ccc(O[C@H](CO)C[C@@H]2COC(C)(C)O2)cc1"
target_entity = "SF-268"
result = "> 100 µM (inactive)"

[[record]]
molecule = "Nc1nc(O)nc2sc3c(c12)CCCC3"
target_entity = "SF-268"
result = "90.4 µM (inactive)"

[[record]]
molecule = "CCOC(=O)Nc1cc2c(c(N)n1)N=C(c1ccc(OC)cc1)CN2"
target_entity = "SF-268"
result = "0.00119 µM (active)"

[[record]]
molecule = "Cn1c(=O)nc2n(-c3cccc(F)c3)c3ccccc3nc-2c1=O"
target_entity = "SF-268"
result = "43.3 µM (inactive)"

[[record]]
molecule = "Clc1ccc(-c2nn3c(CCCCCCCCc4nnc5sc(-c6ccc(Cl)cc6)nn45)nnc3s2)cc1"
target_entity = "SF-268"
result = "23.2 µM (inactive)"

[[record]]
molecule = "COc1ccc2c(C(=O)c3cn(CCN4CCOCC4)c4ccccc34)cccc2c1"
target_entity = "SF-268"
result = "> 80.2 µM (inactive)"

[[record]]
molecule = "COC(=O)C1C(=O)N(CCc2c[nH]c3ccccc23)C[C@@H]2CCC(=O)C[C@H]12 (some centres undefined)"
target_entity = "SF-268"
result = "> 100 µM (inactive)"

[[record]]
molecule = "CCOC(=O)NC(Nc1ccc(S(=O)(=O)Nc2ccc(OC)nn2)cc1)(C(F)(F)F)C(F)(F)F"
target_entity = "SF-268"
result = "36.1 µM (inactive)"

[[record]]
molecule = "CCC(C)C(=O)OC1C(=O)OC2CC3C(C)=CC(=O)C(O)C3(C)C3C4(O)OCC23C1C(C)C4O (centres undefined)"
target_entity = "SF-268"
result = "< 0.0188 µM (active)"

[[record]]
molecule = "O=C(CO[N+](=O)[O-])OC/C=C/c1ccccc1"
target_entity = "SF-268"
result = "> 100 µM (inactive)"

[[record]]
molecule = "COC(=O)c1cn(CCCC(=O)O)nn1"
target_entity = "SF-268"
result = "> 100 µM (inactive)"

[[record]]
molecule = "OC1(c2ccccc2)CC2CCC(C1)N2CCCC1(c2ccc(F)cc2)OCCO1 (centres undefined)"
target_entity = "SF-268"
result = "> 100 µM (inactive)"

[[record]]
molecule = "CN1C(=O)CC(CC(=O)C2CCCCC2=O)CC1=O (centres undefined)"
target_entity = "SF-268"
result = "> 100 µM (inactive)"

[[record]]
molecule = "COC(=O)c1ccc(OCc2ccc3nc(-c4ccccc4)c(Cl)nc3c2)cc1"
target_entity = "SF-268"
result = "42.9 µM (inactive)"

[[record]]
molecule = "CC(C)C/N=C(\\N)N=C(N)N"
target_entity = "SF-268"
result = "> 100 µM (inactive)"

[[record]]
molecule = "CCOC(=O)C(C)(C)Oc1ccc2c(=O)cc(-c3ccccc3)oc2c1"
target_entity = "SF-268"
result = "22.3 µM (inactive)"

[[record]]
molecule = "CCOC(=O)c1c(NS(=O)(=O)c2ccc(Br)cc2)sc2c1CCCC2"
target_entity = "SF-268"
result = "3.72 µM (inactive)"

[[record]]
molecule = "CO[C@]12CC(=O)C3(C(C[C@H]4CC5CC=C6C[C@@H](OC(C)=O)CC[C@]6(OC(C)=O)C5C[C@@]43C)C1)C1C[C@H]3[C@@H]4CC=C5C[C@@H](OC(C)=O)CC[C@]5(OC(C)=O)[C@H]4CC[C@]3(C)C12 (some centres undefined)"
target_entity = "SF-268"
result = "56.9 µM (inactive)"

[[record]]
molecule = "CN1C(=O)CNS1(=O)=O"
target_entity = "SF-268"
result = "> 100 µM (inactive)"

[[record]]
molecule = "O=[N+]([O-])c1ccc(/C=N\\N=c2/ccc([N+](=O)[O-])c[nH]2)cc1"
target_entity = "SF-268"
result = "> 100 µM (inactive)"

[[record]]
molecule = "O=C(c1ccco1)N(C(=O)N1CCC(c2ccccc2)CC1)c1ccccc1"
target_entity = "SF-268"
result = "99.3 µM (inactive)"

[[record]]
molecule = "COc1ccc(CCC2c3cc(OC)c(OC)cc3CCN2C)cc1OC (centres undefined)"
target_entity = "SF-268"
result = "> 100 µM (inactive)"

[[record]]
molecule = "CCOC(=O)c1c(CN2CCCC2)n(-c2ccccc2)c2cc(Br)c(O)cc12"
target_entity = "SF-268"
result = "19.9 µM (inactive)"

[[record]]
molecule = "COc1cc(C2c3cc4c(cc3[C@@H](NC3CCN(Cc5ccccc5)CC3)C3COC(=O)[C@H]23)OCO4)cc(OC)c1O (some centres undefined)"
target_entity = "SF-268"
result = "0.203 µM (active)"

[[record]]
molecule = "CN1C=C(C(N)=O)C2CC(O)[C@@](NC(=O)CS(N)(=O)=O)(C(=O)O)C2C1 (some centres undefined)"
target_entity = "SF-268"
result = "3.02 µM (inactive)"

[[record]]
molecule = "CCOC(=O)c1nnsc1NC(=O)Nc1ccc(Cl)cc1"
target_entity = "SF-268"
result = "57.5 µM (inactive)"


----------
System: Malme-3M
Experiment: NCI tumour cell line growth inhibition, 48 h
Counter-ions that a name gives are not always drawn. Active and inactive are the calls of the source. Cut-off read from the data, not from the text of the source: active = GI50 up to about 1.1 µM and inactive = higher. Non-standard residues stand in square brackets, D forms with d. Residues, ends and D or L forms follow the SMILES beside them. *: point of attachment. Bn2Val = CC(C)[C@@H](C(=O)*)N(Cc1ccccc1)Cc1ccccc1; NH(4-Cl-benzyl) = Clc1ccc(CN*)cc1; NMeV = CN[C@H](C(=O)O)C(C)C; dNMeA = CN[C@H](C)C(=O)O
Readout Kind: GI50

[[record]]
compound = "O=C1C=C(NCCc2ccc(O)cc2)C(=O)C=C1NCCc1ccc(O)cc1"
readout_kind = "GI50"
result = "> 100 µM (inactive)"

[[record]]
compound = "COc1ccc2[nH]c3c(c2c1)[C@H](c1ccccc1)C[C@@H]1C(=O)N(c2ccccc2)C(=O)[C@H]31"
readout_kind = "GI50"
result = "45.5 µM (inactive)"

[[record]]
compound = "c1ccc([C@H]2CN3CCSC3=N2)cc1 [LEVAMISOLE HYDROCHLORIDE]"
readout_kind = "GI50"
result = "> 100 µM (inactive)"

[[record]]
compound = "N[C@@H](CCC(=O)NC(Cc1ccccc1)C(=O)NCP(=O)(O)O)C(=O)O (some centres undefined)"
readout_kind = "GI50"
result = "> 100 µM (inactive)"

[[record]]
compound = "CC(C)[C@H](NC(=O)[C@H](C(C)C)N(Cc1ccccc1)Cc1ccccc1)C(=O)N(C)[C@H](C(=O)N1CCC[C@H]1C(=O)N(C)[C@H](C)C(=O)NCc1ccc(Cl)cc1)C(C)C (Bn2Val-V[NMeV]P[dNMeA]-{NH(4-Cl-benzyl)})"
readout_kind = "GI50"
result = "10.3 µM (inactive)"

[[record]]
compound = "C[N+]1=C(c2cccnc2/C=N/O)OCC1(C)C"
readout_kind = "GI50"
result = "> 100 µM (inactive)"

[[record]]
compound = "CN1C(=O)CC(CC(=O)C2CCCCC2=O)CC1=O (centres undefined)"
readout_kind = "GI50"
result = "> 100 µM (inactive)"

[[record]]
compound = "O=C(CC(=O)C1CCOC1=O)C(=O)Nc1cccc(Cl)c1 (centres undefined)"
readout_kind = "GI50"
result = "> 100 µM (inactive)"

[[record]]
compound = "Oc1ccc(Cl)cc1Cc1cc(Cl)cc(Cc2cc(Cl)ccc2O)c1O"
readout_kind = "GI50"
result = "1.95 µM (inactive)"

